These data points were gathered from ChEMBL document CHEMBL1153887.

# Test system: K562
# EXPERIMENT NOTES: Cytotoxicity against human K562 cells after 72 hrs by MTT assay
# Assay type: functional, cell-based
# MEASUREMENT PARAMETERS: K562, 72 h
EXPERIMENTAL ENDPOINT: pIC50
Reminder that pIC50 means the negative base-10 logarithm of the concentration expressed in mol/L.

>  <SAMPLE SMILES>
COc1ccc(N/N=C(\c2cc(OC)c(OC)c(OC)c2)c2nc(-c3ccccc3)n[nH]c2=O)cc1

>  <pIC50>
5.20

$$$$
>  <SAMPLE SMILES>
COc1cc(/C(=N\Nc2ccc(Cl)cc2)c2nc(-c3ccccc3)n[nH]c2=O)cc(OC)c1OC

>  <pIC50>
4.92

$$$$
>  <SAMPLE SMILES>
COc1cccc(N/N=C(\c2cc(OC)c(OC)c(OC)c2)c2nc(-c3ccccc3)n[nH]c2=O)c1

>  <pIC50>
4.90

$$$$
>  <SAMPLE SMILES>
COc1cc(/C(=N\Nc2ccccc2)c2nc(-c3ccccc3)n[nH]c2=O)cc(OC)c1OC

>  <pIC50>
4.94

$$$$
>  <SAMPLE SMILES>
COc1cc(/C(=N\Nc2ccc(Cl)cc2)c2nc(-c3ccc(Cl)cc3)n[nH]c2=O)cc(OC)c1OC

>  <pIC50>
4.99

$$$$

[ask] Fill in the blank: the reported pIC50 of COc1ccc(-n2nc(-c3cc(OC)c(OC)c(OC)c3)c3nc(-c4ccc(Cl)cc4)nnc32)cc1 is ____.
[reply] 3.61

[ask] Next compound: COc1ccc(-c2nnc3c(n2)c(-c2cc(OC)c(OC)c(OC)c2)nn3-c2cccc(OC)c2)cc1
[reply] 3.94

[ask] Next up: COc1ccc(N/N=C(\c2cc(OC)c(OC)c(OC)c2)c2nc(-c3ccc(Cl)cc3)n[nH]c2=O)cc1
[reply] 5.12

[ask] And for COc1ccccc1-n1nc(-c2cc(OC)c(OC)c(OC)c2)c2nc(-c3cc(OC)c(OC)c(OC)c3)nnc21 ?
[reply] 3.74

[ask] Also COc1ccc(-c2nnc3c(n2)c(-c2cc(OC)c(OC)c(OC)c2)nn3-c2ccccc2OC)cc1 , if possible.
[reply] 3.75

[ask] // same read-out, input: COc1ccc(C(=O)N/C(=C/c2cc(OC)c(OC)c(OC)c2)C(=O)NN)cc1
[reply] 3.76

[ask] Would you mind doing COc1cc(N/N=C(\c2cc(OC)c(OC)c(OC)c2)c2nc(-c3cc(OC)c(OC)c(OC)c3)n[nH]c2=O)cc(OC)c1OC as well?
[reply] 4.03

[ask] COc1cc(-c2nn(-c3ccc(Cl)cc3)c3nnc(-c4ccccc4)nc23)cc(OC)c1OC , same question.
[reply] 3.60

[ask] What do we get for COc1ccc(-n2nc(-c3cc(OC)c(OC)c(OC)c3)c3nc(-c4ccccc4)nnc32)cc1 ?
[reply] 4.07
